Assay: solvent given as SMILES
Conditions: in ClC(Cl)Cl
endpoint-label: log10 fluorescence lifetime (log10 of the value in ns)

{"entry-smiles": "CCCCCCCCN1C(=O)c2ccc3c4c(-c5ccc6c(c5)c5ccccc5n6-c5ccccc5)cc5c6c(cc(-c7ccc8c(c7)c7ccccc7n8-c7ccccc7)c(c7ccc(c2c37)C1=O)c64)C(=O)N(CCCCCCCC)C5=O", "log10 fluorescence lifetime": 0.61}
{"entry-smiles": "CCN(CC)c1ccc(C=Cc2nc3nc4ccccc4nc3s2)c(OC)c1", "log10 fluorescence lifetime": -0.01}
{"entry-smiles": "CN(C)c1ccc(-c2cc(-c3cccs3)nc(-c3ccccc3)n2)cc1", "log10 fluorescence lifetime": 0.85}
{"entry-smiles": "O=C(O)c1c2ccccc2nc2ccccc12", "log10 fluorescence lifetime": -0.22}
{"entry-smiles": "CS1(C)C(/C=C/C2=C(c3ccc(C(=O)O)cc3)C(=C/C=C3/N(CCCCS(=O)(=O)[O-])c4ccccc4S3(C)C)/CCC2)=[N+](CCCCS(=O)(=O)[O-])c2ccccc21", "log10 fluorescence lifetime": 0.12}
{"entry-smiles": "CCCCCCN1C(=O)c2cccc3c(-c4ccc(-c5ccc(-c6ccc7c8c(cccc68)C(=O)N(CCCCCC)C7=O)s5)s4)ccc(c23)C1=O", "log10 fluorescence lifetime": -0.27}
{"entry-smiles": "c1ccc(N(c2ccccc2)c2ccc(-c3ccc(-c4ccc(-c5cccs5)c5nsnc45)s3)cc2)cc1", "log10 fluorescence lifetime": 0.82}
{"entry-smiles": "CCc1ccc(/C=C/c2ccc(-c3nnc(-c4ccc(-c5cc6ccccc6s5)cc4)o3)cc2)cc1", "log10 fluorescence lifetime": -0.21}
{"entry-smiles": "O=[N+]([O-])c1ccc(C#Cc2ccc3ccccc3c2)cc1", "log10 fluorescence lifetime": -0.60}
{"entry-smiles": "COc1ccc(C2=CC(c3ccc4cc(N(C)C)ccc4c3)=[O+][B-](F)(F)O2)cc1", "log10 fluorescence lifetime": 0.55}
{"entry-smiles": "COc1ccc(-c2oc3cccc4c5c(-c6ccc(OC)cc6)c(=N)oc6cccc(c2c34)c65)cc1", "log10 fluorescence lifetime": 0.18}
{"entry-smiles": "CC(=O)O[B-]1(OC(C)=O)OC(/C=C/c2cccc3ccccc23)=CC(/C=C/c2cccc3ccccc23)=[O+]1", "log10 fluorescence lifetime": 0.76}
{"entry-smiles": "CCc1cc(CC)cc(-n2c3ccccc3c3cc4c(cc32)c2ccccc2n4-c2cc(CC)cc(CC)c2)c1", "log10 fluorescence lifetime": 0.57}
{"entry-smiles": "O=Cc1ccc(C#CC(C#Cc2ccc(C=O)s2)=Cc2ccc(C=C(C#Cc3ccc(C=O)s3)C#Cc3ccc(C=O)s3)s2)s1", "log10 fluorescence lifetime": -0.30}
{"entry-smiles": "CCN1C(=CC2=C([O-])C(=Cc3[se]c4ccccc4[n+]3CC)C2=O)[Se]c2ccccc21", "log10 fluorescence lifetime": 0.62}
{"entry-smiles": "Cc1cc(-c2ccc(-n3c4ccccc4c4ccccc43)cc2)nc(-c2ccc(-n3c4ccccc4c4ccccc43)cc2)n1", "log10 fluorescence lifetime": 0.61}
{"entry-smiles": "Cc1cc(=O)c2ccc(N)cc2o1", "log10 fluorescence lifetime": 0.56}

Data provenance is the Deep4Chem optical property database.
